Assay: Cytotoxicity in Vero cells (MTT)
Format: cell-based
Conditions: monkey
Where a name gives a salt, the structure may show the parent alone.
ENDPOINT_NAME: CC50 at 72 h

{"COMPOUND": "N=C(NCCCCCCNC(=N)NC(=N)Nc1ccc(Cl)cc1)NC(=N)Nc1ccc(Cl)cc1 [digluconate salt of chlorhexidine]", "VALUE_OBSERVED": "> 3 µg/mL"}

Reference source for all entries: patent EP4620476A1
